Listing of entries alongside the reported EC50.
Target: human CB2 receptor (hCB2) (Homo sapiens, UniProt P34972)
Sequence (P34972 whole entry): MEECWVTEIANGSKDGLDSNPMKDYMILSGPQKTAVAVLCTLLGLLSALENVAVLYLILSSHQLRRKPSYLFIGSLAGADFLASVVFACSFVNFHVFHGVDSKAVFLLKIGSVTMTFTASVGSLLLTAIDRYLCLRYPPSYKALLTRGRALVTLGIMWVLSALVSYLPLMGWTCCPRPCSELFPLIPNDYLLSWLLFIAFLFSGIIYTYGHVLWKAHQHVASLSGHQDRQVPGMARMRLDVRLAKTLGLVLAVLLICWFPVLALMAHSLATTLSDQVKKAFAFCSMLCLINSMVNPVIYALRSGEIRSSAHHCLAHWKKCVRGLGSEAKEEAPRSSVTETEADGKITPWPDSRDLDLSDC
Assay: cAMP assay, agonist/inverse agonist activity at human CB2 receptor
Assay type: cell-based
Conditions: hCB2R, cAMP assay; read-out: EC50 at hCB2R (Potency at Human CB2 determined by cAMP Assay)

{"smiles_record": "CNC(=O)[C@@H](NC(=O)c1nn(-c2ccc(F)c(F)c2)c2c1COCC2)C(C)(C)C", "EC50": "< 1 µM"}

[Q] Return EC50 for the following compound: Cc1cnc(CNC(=O)[C@@H](NC(=O)n2nc(-c3ccc(F)c(F)c3)c3c2CCOC3)C(C)(C)C)cn1
[A] < 1 µM

[Q] Respond only with EC50 recorded for CN(C)S(=O)(=O)N1CCN(C(=O)[C@@H](NC(=O)n2nc(-c3ccc(F)c(F)c3)c3c2CCOC3)C(C)(C)C)CC1
[A] > 1 µM

[Q] Indicate the recorded EC50 value for this compound: CC(C)(C)[C@H](NC(=O)n1nc(-c2ccc(F)c(F)c2)c2c1CCOC2)C(=O)N1CCS(=O)(=O)CC1
[A] > 1 µM

[Q] Look up and state reported EC50 for CC(C)(C)[C@H](NC(=O)n1nc(-c2ccc(F)c(F)c2)c2c1CCOC2)C(=O)N1CCN(c2ncccn2)CC1
[A] < 1 µM
